Listing of entries alongside the reported Inhibition.
Test system: Plasmodium falciparum
Assay: GSK_TCMDC: Inhibition of Plasmodium falciparum Dd2 in whole red blood cells, using parasite LDH activity as an index of growth. Test compounds present at 2uM
Type: functional

molecule	subjectOfTest	Inhibition, %
Cc1cc(N(CCN2CCCCC2)CCN2CCCCC2)nc(Nc2ccc(Cl)cc2)n1.Cl	Plasmodium falciparum	79
O=C(O)C(F)(F)F.c1cc(CNCC2CCCO2)cc(-c2csc(-c3nc4ccccc4[nH]3)c2)c1 (configuration not stated)	Plasmodium falciparum	6
Br.CCCCCCCCc1c(C)nc(C)c(Br)c1O	Plasmodium falciparum	92
COc1ccc(OCC(=O)Nc2cc(-c3nc4ccccc4[nH]3)ccc2Cl)cc1	Plasmodium falciparum	33
Cc1ccc(F)cc1S(=O)(=O)NCC(C)c1ccc(NC(=O)Nc2cccc(F)c2)cc1 (configuration not stated)	Plasmodium falciparum	5
Cl.Nc1ccc(-c2nc3c(ccc4ccccc43)[nH]2)cc1	Plasmodium falciparum	51
Cc1cnc(NCC2CCCCC2)nc1NCC(=O)Nc1ccccc1.O=C(O)C(F)(F)F	Plasmodium falciparum	51

* * *

Test system: Plasmodium falciparum
Test: GSK_TCMDC: Inhibition of Plasmodium falciparum Dd2 in whole red blood cells, using parasite LDH activity as an index of growth. Test compounds present at 2uM
Type: functional

chemSmiles	Inhibition
Cn1cnc(CCNC(=O)c2ccc(-c3cccc(-c4nc5cc(F)ccc5[nH]4)c3)cc2)c1	24%
CCCNC(=O)c1cncc(-c2ccc(CNC3Cc4ccccc4C3)cc2)c1.O=C(O)C(F)(F)F	21%
O=C(Nc1ccc(-c2ccccc2)cc1)Nc1cccc(Cn2ncc(N3CCNCC3)c(Cl)c2=O)c1.O=C(O)C(F)(F)F	59%
Cl.O=S(=O)(Nc1cc2c(cc1OCCCN1CCCCC1)CCNCC2)c1ccc(-c2ccc(Cl)cc2)cc1	19%
COc1cc(F)c2ncc(F)c(CCN3C[C@H](CNCc4ccc5c(n4)NC(=O)CS5)[C@H](O)C3)c2c1.Cl	47%
CCNc1cc(C(=O)N[C@@H](Cc2ccccc2)[C@H](O)CNC(C)(C)c2cccc(OC)c2)cc(N2CCCC2=O)c1.O=CO	99%
Cc1ccc(NC(=O)c2ccc(CN3CCCN(Cc4cccc(O)c4)CC3)cc2)cc1F.O=C(O)C(F)(F)F	31%
Clc1ccc2c(NCc3ccc4c(c3)OCO4)ccnc2c1	97%
O=C(O)C(F)(F)F.Oc1ccc(CCNc2nc(NCc3ccccc3-c3ccccc3)nc(N3CCCNCC3)n2)cc1	20%

* * *

Tested on: Plasmodium falciparum
Test: GSK_TCMDC: Inhibition of Plasmodium falciparum Dd2 in whole red blood cells, using parasite LDH activity as an index of growth. Test compounds present at 2uM
Assay type: functional
Listing of entries alongside the reported Inhibition.
measuredProperty: Inhibition (%)

compound	measuredProperty	reportedMeasurement
Cc1cn(CC(=O)Nc2cccc(-c3cccc(-c4nc5cc(C(F)(F)F)ccc5[nH]4)c3)c2)c(=O)[nH]c1=O	Inhibition	51
CC(C)C1c2ccc(O)cc2CC2C(=O)N(C3CCCCC3)C(=O)N21 (stereo not drawn)	Inhibition	88
Nc1nc2c(cnn2CCCCCCCP(=O)(O)O)c(=O)[nH]1	Inhibition	91

* * *

Test system: Plasmodium falciparum
Assay: GSK_TCMDC: Inhibition of Plasmodium falciparum 3D7 in whole red blood cells, using parasite LDH activity as an index of growth. Test compounds present at 2uM
Format: functional
measuredProperty: Inhibition (%)

molecule	measuredProperty	reportedMeasurement
O=C(NCCN1CCCC1)N1CCCN(c2ncnc3cc(-c4ccc(Cl)cc4)sc23)CC1.O=C(O)C(F)(F)F	Inhibition	96
COc1ccc(OC)c(NC(=O)C2c3ccccc3C(=O)N(CC(C)C)C2c2cccs2)c1 (stereo not given)	Inhibition	100
CC(C)(C)c1ccc(CN2CCC(CNC(=O)c3cc(-c4ccccc4C(F)(F)F)cs3)C2)cc1.O=C(O)C(F)(F)F (stereo not given)	Inhibition	92
N#Cc1ccc(-c2ccc(C(=O)NCCCCN3CCC(n4cnc5ccccc54)CC3)cc2)cc1	Inhibition	94
C=C(C)Cn1cc(C2CCN(CCCCNC(=O)c3sc(-c4ccc(Cl)cc4Cl)nc3CO)CC2)c2ccccc21	Inhibition	82
COc1ccc(-c2ccc(NC(=O)c3ccc(Cl)cc3)cc2)cc1CN1CCNCC1.O=C(O)C(F)(F)F	Inhibition	99
O=C1OC(c2cc3ccccc3n2S(=O)(=O)c2ccccc2)(c2cc3ccccc3n2S(=O)(=O)c2ccccc2)c2ccccc21	Inhibition	95
Cc1cccc(Nc2c(-c3cc(Br)ccc3O)nc3ncccn23)c1	Inhibition	100
Cc1cccnc1CNc1nccc2c(C)c(C)[nH]c12.Cl	Inhibition	100
O=C(NC1CCCC1)c1ccc(N2CCC(NCc3cccc(C(F)(F)F)c3)CC2)cc1	Inhibition	87
Cc1cccc2nc(-c3ccc(-c4cccc(CN5CCN(c6ccncc6)CC5)c4)cc3)[nH]c12.O=C(O)C(F)(F)F	Inhibition	100
COc1ccc(-c2nc(NC(=O)Cc3ccc(OC)c(OC)c3)sc2C)cc1	Inhibition	93
COc1ccc(-c2ccc(S(=O)(=O)Nc3cc4c(cc3OC(C)C)CCNCC4)cc2)cc1.Cl	Inhibition	86
CCN(CCCN1CCCCC1)c1cc(C)nc(Nc2ccc(C(C)C)cc2)n1.O=C(O)C(F)(F)F	Inhibition	100
COc1ccc(S(=O)(=O)NCC2CCCN(CCCCCNC(=O)/C=C/c3ccc(Cl)c(Cl)c3)C2)cc1 (stereo not given)	Inhibition	81
COc1ccc2nccc([C@@H](O)CN3CCC(NCc4cc5cccnc5[nH]4)CC3)c2n1.O=C(O)C(=O)O	Inhibition	90
CO/C(=C\C=C\c1cc2cc(Cl)ccc2[nH]1)C(=O)NCCCN1CCN(c2cc(Cl)ccc2OC)CC1	Inhibition	97
CCc1cn2c3c(cc(C(=O)N[C@@H](Cc4ccccc4)[C@H](O)CNCC(C)C)cc13)N(C)S(=O)(=O)CC2	Inhibition	98
Cl.O=C(c1ccc(-c2ccc(Cl)cc2)o1)N1CCc2cc3nccc(N4CCN5CCC[C@H]5C4)c3cc21	Inhibition	100
COc1ccc(CCNCCCCCCNCCc2ccc(Cl)c3ccccc23)cc1OC.Cl	Inhibition	100
COc1cccc(OC2CCN(C(=O)c3cc(C(C)(C)C)nn3Cc3ccccc3)CC2)c1	Inhibition	100
O=C(/C=C/c1ccc(Cl)c(Cl)c1)NCCCCCN1CCC(NC(=O)Nc2cccc(C(F)(F)F)c2)CC1	Inhibition	100
COc1cccc2c(NCCNc3ccnc4c(OC)cccc34)ccnc12.Cl	Inhibition	93
CN(C)CCOc1ccc(-c2cc(-c3ccc(Cl)c(O)c3)c(-c3ccncc3)o2)cc1.Cl	Inhibition	100
Cc1cc(N2CCCC2)nc(Nc2ccc(NC(=O)c3ccccc3C)cc2)n1	Inhibition	100

* * *

Test system: HepG2
Test: GSK_TCMDC: Percent inhibition of human HepG2 cell line. Test compounds present at 10uM.
Assay type: functional
Listing of entries alongside the reported Inhibition.

compound	scaleUnit	Inhibition
COc1ccccc1C(C)NCC(=O)Nc1cc(C(F)(F)F)ccc1Cl (centres undefined)	%	4
Cc1ccc2[nH]c3c(NCCN(C)C)ncnc3c2c1	%	9
O=C(Nc1ccc(OC2CCN(Cc3ccccc3)CC2)c(Cl)c1)c1ccco1.O=C(O)C(F)(F)F	%	8
COc1ccc2c(=NN=Cc3ccccc3)cc(C)[nH]c2c1	%	0

* * *

Listing of entries alongside the reported Inhibition.
Test system: HepG2
Test: GSK_TCMDC: Percent inhibition of human HepG2 cell line. Test compounds present at 10uM.
Type: functional

compound	Inhibition
Cl.Oc1ccccc1Nc1nc(NCc2ccco2)c2ccccc2n1	0%
Cc1ccc(CN2CCCN(Cc3cccc(NC(=O)c4cc5ccccc5s4)c3)CC2)cc1.O=C(O)C(F)(F)F	32%
CCc1c(C(=O)NC2CCC(N3CCC(c4ccccc4OC)CC3)CC2)[nH]c2ccc(OC)cc12 (centres undefined)	43%
CCNc1cc(C(=O)N[C@@H](Cc2cccc(F)c2)[C@H](O)CNC(C)CCCC(C)C)cc(N2CCCCS2(=O)=O)c1.Cl (some centres undefined)	0%
CCCCN1CCN(c2cc(NS(=O)(=O)c3ccc(C(=O)Nc4ccc(C(F)(F)F)cc4)cc3)ccc2OC)CC1.O=C(O)C(F)(F)F	17%
Cl.N=C(N)c1cc(Cl)cc(NC(=O)Nc2cc(Cl)cc(C(=N)N)c2)c1	4%
COc1ccccc1-c1ccc(C(=O)NCC2CCCN(Cc3cccc(C(F)(F)F)c3)C2)s1.O=C(O)C(F)(F)F (centres undefined)	18%
CNCCNCc1ccc(-c2cccc(-c3nc4cc(C(F)(F)F)ccc4[nH]3)c2)cc1.O=C(O)C(F)(F)F	27%
CS(=O)(=O)c1ccc(CCNCc2ccc(-c3ccc(CN(C(=O)c4cccc(C#N)c4)C4CCN(Cc5ccccc5)CC4)cc3)nc2)cc1.O=C(O)C(F)(F)F	20%
CCCCOc1ccc(N2C(N)=NC(N)=NC2(C)C)cc1.Cl	16%
Cc1ccc(NC(=O)c2ccc(-c3cc4cc(Cl)c(Cl)cc4[nH]3)cc2)cc1OCCN1CCCC1.O=C(O)C(F)(F)F	7%
O=C(NC1CCN(Cc2ccccc2)CC1)c1csc2nc(-c3ccc(Cl)cc3)cn12	19%
Cc1[nH]c(C)c(-c2ccc(-c3ccc(C#N)cc3)nc2)c(=O)c1Br	5%
CCc1ccc2nc(-c3ccc(F)cc3)nc(SCC(=O)Nc3sc(C)c(C)c3C#N)c2c1	0%
N#Cc1ccc(-c2ccc(OCC(O)CN3CCCN(C(=O)C(c4ccc5c(c4)OCO5)N4CCN(C/C=C/c5ccccc5)CC4)CC3)cc2)cc1 (centres undefined)	25%
COc1cc(CCN(C)Cc2ccc(OC)c(OC)c2)ccc1NC(=O)c1cccc2c(O)c3cccc(F)c3nc12	14%
CCOC(=O)c1c(CSc2ccccc2)oc2cc(CN(C)C)c(O)c(Cl)c12	12%
CC(C)CNCc1ccc(-c2cccc(-c3nc4ccccc4[nH]3)c2)cc1.O=C(O)C(F)(F)F	53%
O=C(CCc1c[nH]cn1)Nc1cccc(-c2ccc(-c3nc4cc(F)ccc4[nH]3)cc2)c1	18%
Cc1nnc(-c2ccc3ccccc3c2)c2cn(-c3cccc([N+](=O)[O-])c3)nc12	29%
Cc1n[nH]c2ccc(-c3cc(OC[C@@H](N)Cc4ccccc4)cnc3-c3cc4ccccc4s3)cc12.O=C(O)C(F)(F)F	41%
COc1ccc2nccc(NCC3(O)CCN(CC(O)c4ccc5c(c4)NC(=O)CS5)CC3)c2n1.Cl (centres undefined)	3%
Fc1ccc(NC(=S)NCCc2ccccc2)cc1	0%
c1ccc(Oc2ccc(Nc3ccnc4cc(-c5ccc(CNCCN6CCOCC6)o5)ccc34)cc2)cc1	20%

Origin of values: ChEMBL document CHEMBL1157539
